Molecular target: T1, hu-CD74 antigen (R&D SYSTEMS catalog #3590-CD-050) (human, UniProt P04233-2 73-232, limits assumed)
T1 construct: Bought antigen; also called rhCD74; human CD74
T1 sequence (looked up): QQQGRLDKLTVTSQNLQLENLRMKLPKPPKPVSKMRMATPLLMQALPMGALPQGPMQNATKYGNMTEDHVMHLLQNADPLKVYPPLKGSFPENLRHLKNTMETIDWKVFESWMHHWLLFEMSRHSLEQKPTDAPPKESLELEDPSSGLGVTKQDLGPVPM
Assay: SPR (Biacore T200), captured on anti-human Fc, rhCD74 analyte
outcome measure: kon (M⁻¹ s⁻¹)
Quick reminder: number only, in M⁻¹ s⁻¹, skip the unit.

**Q:** State the recorded kon for this entry: 1337-A05 light chain paired with VH 1251-A06 (SEQ ID NO: 236) (Fab, V domains shown, 'in Fab format') VH: QVQLVESGGGVVQPGRSLRLSCAASGFDFSSYGMHWVRQAPDKGLEWVAVIWDDGSDRYYADSVKGRFTISRDNSKNTLYLQMNSLRAEDTAVYYCARGGTRVLGAIHGTDVWGQGTTVTVSS VL: DIQMTQSPSSLSASVGDRVTITCRASQGIGRWVAWYQQKPEKAPKSLIYGADRLQSGVPSRFSGSGSGTDFTLTISSLQPEDFATYYCQQYNSYPLTFGGGTKVEIK
**A:** 869000

**Q:** State the recorded kon for this entry: 1337-A06 light chain paired with VH 1251-A06 (SEQ ID NO: 236) (Fab, V domains shown, 'in Fab format') VH: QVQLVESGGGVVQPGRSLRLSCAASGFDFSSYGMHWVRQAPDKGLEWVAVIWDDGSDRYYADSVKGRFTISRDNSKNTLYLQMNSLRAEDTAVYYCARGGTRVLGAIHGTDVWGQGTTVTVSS VL: DIQMTQSPSSLSASVGDRVTITCRASQDIGSWVAWYQQKPEKAPKSLIYGADRLQSGVPSRFSGSGSGTDFTLTISSLQPEDFATYYCQQYNSYPLTFGGGTKVEIK
**A:** 785000

Continuing:
**Q:** State the recorded kon for this entry: 1337-A10 light chain paired with VH 1251-A06 (SEQ ID NO: 236) (Fab, V domains shown, 'in Fab format') VH: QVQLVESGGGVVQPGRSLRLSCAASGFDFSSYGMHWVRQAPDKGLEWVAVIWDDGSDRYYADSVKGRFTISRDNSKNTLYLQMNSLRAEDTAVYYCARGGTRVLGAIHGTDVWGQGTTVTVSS VL: DIQMTQSPSSLSASVGDRVTITCRASQGISSWVAWYQQKPEKAPKSLIYGSSRLQSGVPSRFSGSGSGTDFTLTISSLQPEDFATYYCQQYNTYPLTFGGGTKVEIK
**A:** 935000
